The reported measurements were obtained from PubChem BioAssay AID2060328.

# pIC50 annotations
Test system: MDA-MB-231 multicell spheroids, viability (%T/C)
procedureDetails: Anticancer human tumor MDA-MB-231 cell line growth inhibition [IpAb];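 further: viability read after seven days of drug exposure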
experimentalContext: curve of first compound; second compound 1 µM
pIC50: −log10 of the molar value.

molecule: Cn1cnc2c(F)c(Nc3ccc(Br)cc3Cl)c(C(=O)NOCCO)cc21 + CC(C)NCC(C(=O)N1CCN(c2ncnc3c2C(C)CC3O)CC1)c1ccc(Cl)cc1
relationOperator: >
pIC50: 8.02
--
molecule: CC(C)n1nc(-c2ccc3oc(N)nc3c2)c2c(N)ncnc21 + CCN1CCN(Cc2ccc(Nc3ncc(F)c(-c4cc(F)c5nc(C)n(C(C)C)c5c4)n3)nc2)CC1
relationOperator: >
pIC50: 9.50
--
molecule: CC(C)n1nc(-c2ccc3oc(N)nc3c2)c2c(N)ncnc21 + CC(C)NCC(C(=O)N1CCN(c2ncnc3c2C(C)CC3O)CC1)c1ccc(Cl)cc1
relationOperator: =
pIC50: 8.65
--
molecule: Cc1nc(NC(=O)N2CCCC2C(N)=O)sc1-c1ccnc(C(C)(C)C(F)(F)F)c1 (stereo unspecified) + CC(C)NCC(C(=O)N1CCN(c2ncnc3c2C(C)CC3O)CC1)c1ccc(Cl)cc1
relationOperator: <
pIC50: 5.00
--
molecule: CC(=O)c1c(C)c2cnc(Nc3ccc(N4CCNCC4)cn3)nc2n(C2CCCC2)c1=O + CCN1CCN(Cc2ccc(Nc3ncc(F)c(-c4cc(F)c5nc(C)n(C(C)C)c5c4)n3)nc2)CC1
relationOperator: <
pIC50: 6.52
--
molecule: Cn1ncnc1[C@H]1c2n[nH]c(=O)c3cc(F)cc(c23)N[C@@H]1c1ccc(F)cc1 + CCN1CCN(Cc2ccc(Nc3ncc(F)c(-c4cc(F)c5nc(C)n(C(C)C)c5c4)n3)nc2)CC1
relationOperator: >
pIC50: 9.50
--
molecule: CCCS(=O)(=O)Nc1ccc(F)c(C(=O)c2c[nH]c3ncc(-c4ccc(Cl)cc4)cc23)c1F + CC(C)NCC(C(=O)N1CCN(c2ncnc3c2C(C)CC3O)CC1)c1ccc(Cl)cc1
relationOperator: =
pIC50: 5.27
--
molecule: Cn1cnc2c(F)c(Nc3ccc(Br)cc3Cl)c(C(=O)NOCCO)cc21 + CCN1CCN(Cc2ccc(Nc3ncc(F)c(-c4cc(F)c5nc(C)n(C(C)C)c5c4)n3)nc2)CC1
relationOperator: >
pIC50: 8.02
--
molecule: CC1(C)CCC(CN2CCN(c3ccc(C(=O)NS(=O)(=O)c4ccc(NCC5CCOCC5)c([N+](=O)[O-])c4)c(Oc4cnc5[nH]ccc5c4)c3)CC2)=C(c2ccc(Cl)cc2)C1 + CC(C)NCC(C(=O)N1CCN(c2ncnc3c2C(C)CC3O)CC1)c1ccc(Cl)cc1
relationOperator: =
pIC50: 5.32
--
molecule: CC(C)(C)c1cnc(CSc2cnc(NC(=O)C3CCNCC3)s2)o1 + CC(C)NCC(C(=O)N1CCN(c2ncnc3c2C(C)CC3O)CC1)c1ccc(Cl)cc1
relationOperator: =
pIC50: 6.85
--
molecule: CC1(C)CCC(CN2CCN(c3ccc(C(=O)NS(=O)(=O)c4ccc(NCC5CCOCC5)c([N+](=O)[O-])c4)c(Oc4cnc5[nH]ccc5c4)c3)CC2)=C(c2ccc(Cl)cc2)C1 + CCN1CCN(Cc2ccc(Nc3ncc(F)c(-c4cc(F)c5nc(C)n(C(C)C)c5c4)n3)nc2)CC1
relationOperator: =
pIC50: 5.49
--
molecule: Cn1nccc1Nc1nccc(-c2ccn(C(CO)c3ccc(Cl)c(F)c3)c(=O)c2)n1 (stereo unspecified) + CC(C)NCC(C(=O)N1CCN(c2ncnc3c2C(C)CC3O)CC1)c1ccc(Cl)cc1
relationOperator: >
pIC50: 7.50
--
molecule: CCCS(=O)(=O)Nc1ccc(F)c(C(=O)c2c[nH]c3ncc(-c4ccc(Cl)cc4)cc23)c1F + CCN1CCN(Cc2ccc(Nc3ncc(F)c(-c4cc(F)c5nc(C)n(C(C)C)c5c4)n3)nc2)CC1
relationOperator: =
pIC50: 6.26
--
molecule: COc1c(OCCCN2CCOCC2)ccc2c3n(c(=NC(=O)c4cnc(N)nc4)nc12)CCN3 + CC(C)NCC(C(=O)N1CCN(c2ncnc3c2C(C)CC3O)CC1)c1ccc(Cl)cc1
relationOperator: =
pIC50: 7.79
--
molecule: Cn1ncnc1[C@H]1c2n[nH]c(=O)c3cc(F)cc(c23)N[C@@H]1c1ccc(F)cc1 + CC(C)NCC(C(=O)N1CCN(c2ncnc3c2C(C)CC3O)CC1)c1ccc(Cl)cc1
relationOperator: <
pIC50: 7.00
--
molecule: C=CCn1c(=O)c2cnc(Nc3ccc(N4CCN(C)CC4)cc3)nc2n1-c1cccc(C(C)(C)O)n1 + CCN1CCN(Cc2ccc(Nc3ncc(F)c(-c4cc(F)c5nc(C)n(C(C)C)c5c4)n3)nc2)CC1
relationOperator: =
pIC50: 6.49
--
molecule: Cn1ncc(Cl)c1-c1cc(C(=O)NC(CN)Cc2cccc(F)c2)sc1Cl (stereo unspecified) + CCN1CCN(Cc2ccc(Nc3ncc(F)c(-c4cc(F)c5nc(C)n(C(C)C)c5c4)n3)nc2)CC1
relationOperator: >
pIC50: 7.50
--
molecule: Cc1nc(NC(=O)N2CCCC2C(N)=O)sc1-c1ccnc(C(C)(C)C(F)(F)F)c1 (stereo unspecified) + CCN1CCN(Cc2ccc(Nc3ncc(F)c(-c4cc(F)c5nc(C)n(C(C)C)c5c4)n3)nc2)CC1
relationOperator: >
pIC50: 7.50
--
molecule: C=CCn1c(=O)c2cnc(Nc3ccc(N4CCN(C)CC4)cc3)nc2n1-c1cccc(C(C)(C)O)n1 + CC(C)NCC(C(=O)N1CCN(c2ncnc3c2C(C)CC3O)CC1)c1ccc(Cl)cc1
relationOperator: =
pIC50: 6.77
--
molecule: COc1c(OCCCN2CCOCC2)ccc2c3n(c(=NC(=O)c4cnc(N)nc4)nc12)CCN3 + CCN1CCN(Cc2ccc(Nc3ncc(F)c(-c4cc(F)c5nc(C)n(C(C)C)c5c4)n3)nc2)CC1
relationOperator: >
pIC50: 8.50
--
molecule: CC(C)(C)c1cnc(CSc2cnc(NC(=O)C3CCNCC3)s2)o1 + CCN1CCN(Cc2ccc(Nc3ncc(F)c(-c4cc(F)c5nc(C)n(C(C)C)c5c4)n3)nc2)CC1
relationOperator: =
pIC50: 7.44
